Entry source: the supplement of paper PMC10065799

# measured.target: Fyn (UniProt P06241)
# Sequence (P06241 whole entry, looked up): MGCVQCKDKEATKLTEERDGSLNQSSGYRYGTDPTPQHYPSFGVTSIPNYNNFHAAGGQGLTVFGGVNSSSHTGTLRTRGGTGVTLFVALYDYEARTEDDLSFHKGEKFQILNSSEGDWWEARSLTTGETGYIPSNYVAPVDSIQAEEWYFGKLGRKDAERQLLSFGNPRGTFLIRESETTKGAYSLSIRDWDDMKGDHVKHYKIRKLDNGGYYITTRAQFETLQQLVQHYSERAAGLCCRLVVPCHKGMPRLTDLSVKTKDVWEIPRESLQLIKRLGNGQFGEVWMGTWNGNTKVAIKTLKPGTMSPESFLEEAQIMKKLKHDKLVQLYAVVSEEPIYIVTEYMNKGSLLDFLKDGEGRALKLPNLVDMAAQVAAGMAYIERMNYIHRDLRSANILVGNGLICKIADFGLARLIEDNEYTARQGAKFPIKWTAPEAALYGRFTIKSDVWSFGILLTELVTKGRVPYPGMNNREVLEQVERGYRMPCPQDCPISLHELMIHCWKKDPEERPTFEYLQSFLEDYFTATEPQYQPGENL
# method.description: phosphorylation enrichment, bacterial display (enrichment ratio); higher = better substrate or ligand; peptides without Tyr show the background;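 further: 11-residue human phosphosite peptides and single-mutation variants displayed on the E. coli surface, counted by deep sequencing, each peptide's frequency after selection divided by its frequency in the unselected input library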;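 further: frequency after pTyr selection over input frequency; kinase dosed for 20-30% of maximal phosphorylation in three min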
// NO strictly below 0.5 in phosphorylation enrichment; YES otherwise

Is phosphorylation enrichment for RCYVYYYSYLL [PTEN_Y177_R173C] at or above 0.5?
YES

Is phosphorylation enrichment for SHLSSYTTHPQ [NIPBL_Y195_P192L] at or above 0.5?
NO

Is phosphorylation enrichment for QKPLDYYRVNL [GALE_Y104] at or above 0.5?
YES

Is phosphorylation enrichment for HNVPIYEGYGL [ACTA1_Y168_A172G] at or above 0.5?
YES

Is phosphorylation enrichment for TYEPNYGTVKR [RAPGEF6_Y1447_Q1452R] at or above 0.5?
YES

Is phosphorylation enrichment for AAVNGYVFGGG [ECHS1_Y137_A138V] at or above 0.5?
NO

Is phosphorylation enrichment for TVSTGYTQPQP [SARG_Y259_R258G] at or above 0.5?
NO

Is phosphorylation enrichment for KSMSVYCTPNK [ATP2A2_Y497] at or above 0.5?
YES

Is phosphorylation enrichment for KFDLMYAKCAF [TUBA1A_Y399_R402C] at or above 0.5?
YES

Is phosphorylation enrichment for PTYEHYANSTQ [SLC12A3_Y70] at or above 0.5?
YES

Is phosphorylation enrichment for WKKEIYEESST [MOCS2_Y170] at or above 0.5?
NO

Is phosphorylation enrichment for QKPLDYFRVNL [GALE_Y104_YF] at or above 0.5?
YES

Is phosphorylation enrichment for TLGPFYPSRLF [CRYAA_Y18] at or above 0.5?
NO

Is phosphorylation enrichment for HEDPMYDIIRD [RP9_Y142] at or above 0.5?
YES

Is phosphorylation enrichment for KLIETYFSKNF [PLP1_Y50_YF] at or above 0.5?
NO

Is phosphorylation enrichment for GMSQAYSFSQR [DES_Y5_S7F] at or above 0.5?
NO

Is phosphorylation enrichment for LERFIYNREEL [HLA-DPB1_Y59_F64L_YF] at or above 0.5?
YES

Is phosphorylation enrichment for CPTIHYNYMCN [TP53_Y234_T230P] at or above 0.5?
YES

Is phosphorylation enrichment for SLMGCYNLTFM [HS6ST3_Y323_V320M] at or above 0.5?
YES

Is phosphorylation enrichment for ILGRTHFVNHE [NEDD4_Y627_Y627H_YF] at or above 0.5?
NO

Is phosphorylation enrichment for KKKKQYKGKYL [CASK_Y708_D710G] at or above 0.5?
YES

Is phosphorylation enrichment for FRRITYHNWRH [PDE6B_Y556_YF] at or above 0.5?
YES

Is phosphorylation enrichment for RQNNSYTCYTA [SLC20A2_Y386_R382Q] at or above 0.5?
YES
